We begin with a simple list: items and their reported apparent KD of MS2 coat protein.
# System: MS2 coat protein
# experimentSummary: apparent KD of MS2 coat protein; designed switch direction (-1 OFF switch, 1 ON switch): -1; higher = weaker reporter binding
# conditionSummary: input ligand: FMN 200 uM
Unit µM implied. Number only.

orderedResidues	apparent KD of MS2 coat protein (µM)
UCCUCACAUGAGGAUCACCCAUGUUAGGAUAUCUUAGAGCGCGAAAGACAGUUCUUUAAGAGAAGGAACUGGGC [Exclusion 1 (MOD1 of Edarti)] (Eterna round: R97, puzzle: Exclusion 1)	0.054
AGUGUGUGGCAGGAUAUGCGAUUUGUAAGUGUUGCAGAAGGGUCUACAUGAGGAUCACCCAUGUGUGCGGUUGA [Ex6 #13] (Eterna round: R97, puzzle: Exclusion 6)	0.658
GUUGUUUAUGUAGGAUAUGCAAGGCGAACCUAAGCAGAAGGACAUGAGGAUCACCCAUGUAUUGCGGUCUGCGUUCAGAUCGCU [salish99_ExNG1_r4_014] (Eterna round: R96, puzzle: Exclusion NG 1)	0.0568

Turning now to a further sequence:
Exercise: Return reported apparent KD of MS2 coat protein; argument: UGCCAGAAAGGAUAUACAGCCCGGGCGUUCCUGCGAUAUAUACAUGAGGAUCACCCAUGUAGAAGGUUCGGCGG [EX2 C.12] (Eterna round: R97, puzzle: Exclusion 2)
Key: 0.0331
